Hey, just so you know, these numbers are from ChEMBL document CHEMBL4130487.

# assayed target: Neutrophil collagenase (Homo sapiens)
# Sequence (P22894 whole entry): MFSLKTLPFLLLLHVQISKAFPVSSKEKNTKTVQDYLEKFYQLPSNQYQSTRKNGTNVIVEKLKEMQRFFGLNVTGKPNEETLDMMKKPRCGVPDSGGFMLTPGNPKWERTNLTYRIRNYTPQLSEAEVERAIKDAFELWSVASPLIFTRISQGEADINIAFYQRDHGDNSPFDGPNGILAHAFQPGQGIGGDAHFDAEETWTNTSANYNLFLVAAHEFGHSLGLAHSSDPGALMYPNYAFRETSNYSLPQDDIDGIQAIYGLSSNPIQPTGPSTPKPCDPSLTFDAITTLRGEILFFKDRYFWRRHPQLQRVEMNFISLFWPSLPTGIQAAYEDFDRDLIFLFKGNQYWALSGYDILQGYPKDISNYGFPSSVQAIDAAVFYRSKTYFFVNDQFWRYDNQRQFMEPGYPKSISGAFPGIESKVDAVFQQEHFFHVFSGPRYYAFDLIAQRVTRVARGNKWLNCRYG
# test: Inhibition of recombinant human MMP8 (Phe99 to Gln269 residues) expressed in Escherichia coli using Ac-Pro-Leu-Gly-S-Leu-Leu-Gly-OEt as substrate after 1 hr measured at 1 min time interval for 30 mins by microplate photometric method
measurement type: pIC50
Answers are plain numbers, as −log10 of the molar value.

| smiles input | pIC50 |
| --- | --- |
| CCCCNC(=O)CC[C@H](NS(=O)(=O)c1ccc([N+](=O)[O-])cc1)C(=O)O | 3.46 |
| CNC(=O)CC[C@H](NS(=O)(=O)c1ccc([N+](=O)[O-])cc1)C(=O)O | 3.40 |
| NC(=O)CC[C@H](NS(=O)(=O)c1ccc([N+](=O)[O-])cc1)C(=O)O | 3.70 |

Hi! Can you tell me pIC50 for each of these compounds?
1. CCNC(=O)CC[C@H](NS(=O)(=O)c1ccc([N+](=O)[O-])cc1)C(=O)O
2. CC(C)CNC(=O)CC[C@H](NS(=O)(=O)c1ccc([N+](=O)[O-])cc1)C(=O)O
3. O=C(CC[C@H](NS(=O)(=O)c1ccc([N+](=O)[O-])cc1)C(=O)O)NCc1ccccc1

[3.53, 3.32, 3.76]
